Each recorded value in this set is attributed to PubChem BioAssay.

# Test system: F380Y/beta2Delta
# experiment_description: modulators of BK channel variants, profiling panel, selectivity assay, cell-based, U2OS BacMam, thallium flux, beta subunits (AID 1259406);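 further: initial slope of Thallos dye fluorescence rise after thallium is added; log ratio against the mean of 0.3% DMSO vehicle wells on the same plate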
# recorded_conditions: at 30 µM
property_measured: log fold change Tl+ flux
API doc: respond with a numeric literal and nothing else, no unit.

Look at this molecule and give its reported log fold change Tl+ flux. CCC(C)(C)N=C(NC#N)Nc1cccnc1
0.00568

Okay, and N[C@@H](C(=O)N[C@@H]1C(=O)N2C(C(=O)O)=C(CSc3cn[nH]n3)CS[C@H]12)c1ccc(O)cc1 (tested in a mixture with another compound) ?
0.00568

Okay, and ONC=Nc1nonc1-c1cccnc1 ?
-0.0403

###

# experiment_description: antimalarial activity against Dd2 strain (AID 2302);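 further: 0% = DMSO untreated growth and 100% = chloroquine plus artemisinin killed control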
# recorded_conditions: P. falciparum Dd2 in RBCs, LDH growth readout, 72 h; at 2 µM; stronger effect = higher value
Calls of active or inactive are those of the source.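 How the source made its calls: active means growth inhibition above 50% at the single 2 µM test dose, taken to imply half-maximal potency below 2 µM; inactive means the rest.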
property_measured: growth inhibition

Look at this compound and give its reported growth inhibition. COc1ccc2nccc([C@@H](O)CN3CCC(NC(=O)c4ccc(C5(C(F)(F)F)N=N5)cc4)CC3)c2c1
41% (inactive)

Okay, and Clc1ccc(CNCCCCCCCNCc2ccc(Cl)c(Cl)c2)cc1Cl ?
49% (inactive)

Okay, and COc1ccccc1-c1csc(C(=O)NCC2CCN(Cc3ccc(C(C)(C)C)cc3)C2)c1 (stereo not given) ?
11% (inactive)

Okay, and CC1=C(C(=O)Nc2cc3cn[nH]c3cc2F)C(c2ccc(Cl)c(NS(C)(=O)=O)c2)CC(=O)N1 (stereo not given) ?
98% (active)

Okay, and C(=Cc1ccccc1)C=NNc1ccnc2ccccc12 ?
100% (active)

Okay, and Nc1nc(N)c2c(Oc3cc(Cl)c(Cl)c(Cl)c3)cccc2n1 ?
92% (active)

Okay, and C=CCNC(=O)C(C)c1ccc2cc(OC)ccc2c1 (stereo not given) ?
90% (active)

Okay, and O=C(NCCCCN1CCC(c2ccc(Br)cc2)CC1)c1ccc(NC(=O)c2ccc(Cl)cc2)cc1 ?
86% (active)

Okay, and CC(C)(CNC(=O)C1CCN(CCOc2ccc(Cl)cc2)CC1)c1nc(-c2ccc(Cl)c(O)c2)c(-c2ccncc2)[nH]1 ?
5% (inactive)

Okay, and NC(=O)c1ccc(NCC(=O)Nc2cccc(-c3cccc(-c4nc5ccc(F)cc5[nH]4)c3)c2)cc1 ?
32% (inactive)

###

Entries and their measured rescue above control follow.
# experiment_description: rescue of polyQ-huntingtin neuronal dysfunction in worms, whole organism, C. elegans mechanosensory neurons, N-terminal huntingtin (AID 1599)
# recorded_conditions: touch response, stronger effect = higher value
Results with a measured potency or affinity are listed apart.
API doc: respond with a numeric literal and nothing else, no unit.

{"compound": "CC1(C)O[C@@H]2CC3C4C[C@H](F)C5=CC(=O)C=CC5(C)C4C(O)CC3(C)[C@]2(C(=O)CO)O1 (some centres undefined)", "assay_value": 14.2}
{"compound": "CC(=O)O[C@H]1C(=O)[C@@]2(C)C([C@H](OC(=O)c3ccccc3)[C@]3(O)C[C@H](OC(=O)[C@H](O)[C@@H](NC(=O)c4ccccc4)c4ccccc4)C(C)=C1C3(C)C)[C@]1(OC(C)=O)CO[C@@H]1C[C@@H]2O (some centres undefined)", "assay_value": 5.24}
{"compound": "CN1C2CC[C@@H]1CC(OC(=O)[C@H](CO)c1ccccc1)C2 (some centres undefined)", "assay_value": 0.71}

Look at this compound and give its reported rescue above control. CC(=O)O[C@]1(C(C)=O)CCC2C3C[C@H](C)C4=CC(=O)CC[C@]4(C)C3CC[C@@]21C (some centres undefined)
2.76
